target: F-actin from rabbit skeletal muscle (rabbit, UniProt P68135 1-377); assay: co-sedimentation; 2 µM ABD protein with increasing F-actin (3-120 µM) in F-buffer (10 mM Tris pH 7.5, 150 mM NaCl, 0.5 mM ATP, 2 mM MgCl2, 1 mM DTT); 30 min at room temperature; 50,000 RPM 30 min 25 °C; ABD left in supernatant quantified by SDS-PAGE and Coomassie; one-site fit with Bmax constrained to 1; conditions: both partners purified
attribute_measured: Kd

Quick note, Kd for β-III-spectrin actin-binding domain T271I (domain or fragment, mutation found in a patient; also called T271I ABD; source: Rosetta 2 (DE3) E. coli, purified (Ni-NTA, tag cleaved with Ulp1, second Ni-NTA)) MSSTLSPTDFDSLEIQGQYSDINNRWDLPDSDWDNDSSSARLFERSRIKALADEREAVQKKTFTKWVNSHLARVTCRVGDLYSDLRDGRNLLRLLEVLSGEILPKPTKGRMRIHCLENVDKALQFLKEQKVHLENMGSHDIVDGNHRLTLGLVWTIILRFQIQDISVETEDNKEKKSAKDALLLWCQMKTAGYPNVNVHNFTTSWRDGLAFNAIVHKHRPDLLDFESLKKCNAHYNLQNAFNLAEKELGLTKLLDPEDVNVDQPDEKSIIIYVATYYHYFSKMK landed at < 1000 nM
